method summary: Binding affinity to 5'-ATCGGAT-3' DNA (unknown origin) assessed as dissociation constant incubated for 180 secs by SPR analysis
Lab note: anything with Kd below 10 nM is marked Criterion met; values at 10 nM or higher are marked Criterion not met.

given smiles	assigned class
CC(=O)Nc1cc(C(=O)NCCC(=O)Nc2cn(C)c(C(=O)Nc3cc(C(=O)NCC[C@@H](N)C(=O)Nc4cc(C(=O)NCCC(=O)Nc5cn(C)c(C(=O)Nc6cn(C)c(C(=O)NCCC(=O)NCCCN(C)C)n6)n5)n(C)c4)n(C)c3)n2)n(C)c1	Criterion met
CC(=O)Nc1cc(C(=O)Nc2cn(C)c(C(=O)Nc3cc(C(=O)Nc4cc(C(=O)NCCCC(=O)Nc5cn(C)c(C(=O)Nc6cn(C)c(C(=O)Nc7cc(C(=O)Nc8cc(C(=O)NCCC(=O)NCCCN(C)C)n(C)c8)n(C)c7)n6)n5)n(C)c4)n(C)c3)n2)n(C)c1	Criterion not met
CC(=O)Nc1cc(C(=O)Nc2cc(C(=O)Nc3cn(C)c(C(=O)Nc4cc(C(=O)NCCCC(=O)Nc5cc(C(=O)NCCC(=O)Nc6cn(C)c(C(=O)Nc7cn(C)c(C(=O)NCCC(=O)NCCCN(C)C)n7)n6)n(C)c5)n(C)c4)n3)n(C)c2)n(C)c1	Criterion not met
CC(=O)Nc1cc(C(=O)Nc2cn(C)c(C(=O)Nc3cc(C(=O)Nc4cc(C(=O)NCCCC(=O)Nc5cn(C)c(C(=O)Nc6cn(C)c(C(=O)NCCC(=O)Nc7cc(C(=O)NCCC(=O)NCCCN(C)C)n(C)c7)n6)n5)n(C)c4)n(C)c3)n2)n(C)c1	Criterion not met
CC(=O)Nc1cc(C(=O)Nc2cn(C)c(C(=O)NCCC(=O)Nc3cc(C(=O)NCCCC(=O)Nc4cn(C)c(C(=O)Nc5cn(C)c(C(=O)NCCC(=O)Nc6cc(C(=O)NCCC(=O)NCCCN(C)C)n(C)c6)n5)n4)n(C)c3)n2)n(C)c1	Criterion met

Proceed to the following item.
(Q) Is it true that Kd reported for `CC(=O)Nc1cc(C(=O)Nc2cn(C)c(C(=O)NCCC(=O)Nc3cc(C(=O)NCCCC(=O)Nc4cn(C)c(C(=O)Nc5cn(C)c(C(=O)Nc6cc(C(=O)Nc7cc(C(=O)NCCC(=O)NCCCN(C)C)n(C)c7)n(C)c6)n5)n4)n(C)c3)n2)n(C)c1` is less than 10 nM?
(A) Criterion not met

* * *

method summary: Binding preference index, ratio of Kd for 5'-ATmCGGAT-3' DNA (unknown origin) to Kd for 5'-ATCGGAT-3' DNA (unknown origin)
Below, each of the molecules is paired with its reported Ratio value.
Would you mind answering with just the numeric figure?

# example entries with known answers
given smiles	Ratio
CC(=O)Nc1cc(C(=O)Nc2cn(C)c(C(=O)Nc3cc(C(=O)Nc4cc(C(=O)NCCCC(=O)Nc5cn(C)c(C(=O)Nc6cn(C)c(C(=O)NCCC(=O)Nc7cc(C(=O)NCCC(=O)NCCCN(C)C)n(C)c7)n6)n5)n(C)c4)n(C)c3)n2)n(C)c1	0.9
CC(=O)Nc1cc(C(=O)Nc2cn(C)c(C(=O)NCCC(=O)Nc3cc(C(=O)NCCCC(=O)Nc4cn(C)c(C(=O)Nc5cn(C)c(C(=O)NCCC(=O)Nc6cc(C(=O)NCCC(=O)NCCCN(C)C)n(C)c6)n5)n4)n(C)c3)n2)n(C)c1	1.6
CC(=O)Nc1cc(C(=O)Nc2cc(C(=O)Nc3cn(C)c(C(=O)Nc4cc(C(=O)NCCCC(=O)Nc5cc(C(=O)NCCC(=O)Nc6cn(C)c(C(=O)Nc7cn(C)c(C(=O)NCCC(=O)NCCCN(C)C)n7)n6)n(C)c5)n(C)c4)n3)n(C)c2)n(C)c1	2.2
CC(=O)Nc1cc(C(=O)NCCC(=O)Nc2cn(C)c(C(=O)Nc3cc(C(=O)NCC[C@@H](N)C(=O)Nc4cc(C(=O)NCCC(=O)Nc5cn(C)c(C(=O)Nc6cn(C)c(C(=O)NCCC(=O)NCCCN(C)C)n6)n5)n(C)c4)n(C)c3)n2)n(C)c1	1
CC(=O)Nc1cc(C(=O)Nc2cn(C)c(C(=O)NCCC(=O)Nc3cc(C(=O)NCCCC(=O)Nc4cn(C)c(C(=O)Nc5cn(C)c(C(=O)Nc6cc(C(=O)Nc7cc(C(=O)NCCC(=O)NCCCN(C)C)n(C)c7)n(C)c6)n5)n4)n(C)c3)n2)n(C)c1	4.1
CC(=O)Nc1cc(C(=O)NCCC(=O)Nc2cn(C)c(C(=O)Nc3cc(C(=O)NCCCC(=O)Nc4cc(C(=O)Nc5cc(C(=O)Nc6cn(C)c(C(=O)Nc7cn(C)c(C(=O)NCCC(=O)NCCCN(C)C)n7)n6)n(C)c5)n(C)c4)n(C)c3)n2)n(C)c1	0.9

`CC(=O)Nc1cc(C(=O)Nc2cn(C)c(C(=O)NCCC(=O)Nc3cc(C(=O)NCC[C@H](N)C(=O)Nc4cn(C)c(C(=O)Nc5cn(C)c(C(=O)NCCC(=O)Nc6cc(C(=O)NCCC(=O)NCCCN(C)C)n(C)c6)n5)n4)n(C)c3)n2)n(C)c1` yielded Ratio of 1.1

`CC(=O)Nc1cc(C(=O)NCCC(=O)Nc2cn(C)c(C(=O)Nc3cc(C(=O)NCCCC(=O)Nc4cc(C(=O)NCCC(=O)Nc5cn(C)c(C(=O)Nc6cn(C)c(C(=O)NCCC(=O)NCCCN(C)C)n6)n5)n(C)c4)n(C)c3)n2)n(C)c1` yielded Ratio of 0.9

`CC(=O)Nc1cc(C(=O)Nc2cn(C)c(C(=O)Nc3cc(C(=O)Nc4cc(C(=O)NCCCC(=O)Nc5cn(C)c(C(=O)Nc6cn(C)c(C(=O)Nc7cc(C(=O)Nc8cc(C(=O)NCCC(=O)NCCCN(C)C)n(C)c8)n(C)c7)n6)n5)n(C)c4)n(C)c3)n2)n(C)c1` yielded Ratio of 1.3

* * *

method summary: Binding affinity to 5'-ATCGGAT-3' DNA (unknown origin) assessed as association constant incubated for 180 secs by SPR analysis
measured parameter: Ka

# example entries with known answers
given smiles	Ka
CC(=O)Nc1cc(C(=O)Nc2cc(C(=O)Nc3cn(C)c(C(=O)Nc4cc(C(=O)NCCCC(=O)Nc5cc(C(=O)NCCC(=O)Nc6cn(C)c(C(=O)Nc7cn(C)c(C(=O)NCCC(=O)NCCCN(C)C)n7)n6)n(C)c5)n(C)c4)n3)n(C)c2)n(C)c1	5.2 ×10⁵ /M/s
CC(=O)Nc1cc(C(=O)Nc2cn(C)c(C(=O)Nc3cc(C(=O)Nc4cc(C(=O)NCCCC(=O)Nc5cn(C)c(C(=O)Nc6cn(C)c(C(=O)NCCC(=O)Nc7cc(C(=O)NCCC(=O)NCCCN(C)C)n(C)c7)n6)n5)n(C)c4)n(C)c3)n2)n(C)c1	9.7 ×10⁵ /M/s
CC(=O)Nc1cc(C(=O)NCCC(=O)Nc2cn(C)c(C(=O)Nc3cc(C(=O)NCCCC(=O)Nc4cc(C(=O)Nc5cc(C(=O)Nc6cn(C)c(C(=O)Nc7cn(C)c(C(=O)NCCC(=O)NCCCN(C)C)n7)n6)n(C)c5)n(C)c4)n(C)c3)n2)n(C)c1	3.6 ×10⁴ /M/s
CC(=O)Nc1cc(C(=O)Nc2cn(C)c(C(=O)NCCC(=O)Nc3cc(C(=O)NCCCC(=O)Nc4cn(C)c(C(=O)Nc5cn(C)c(C(=O)Nc6cc(C(=O)Nc7cc(C(=O)NCCC(=O)NCCCN(C)C)n(C)c7)n(C)c6)n5)n4)n(C)c3)n2)n(C)c1	8.2 ×10⁵ /M/s

# ---- query compound ----
`CC(=O)Nc1cc(C(=O)Nc2cn(C)c(C(=O)Nc3cc(C(=O)Nc4cc(C(=O)NCCCC(=O)Nc5cn(C)c(C(=O)Nc6cn(C)c(C(=O)Nc7cc(C(=O)Nc8cc(C(=O)NCCC(=O)NCCCN(C)C)n(C)c8)n(C)c7)n6)n5)n(C)c4)n(C)c3)n2)n(C)c1` yielded Ka of 1.2 ×10⁴ /M/s

* * *

Below, each of the molecules is paired with its reported Dissociation rate constant (koff) value.
method summary: Binding affinity to 5'-ATCGGAT-3' DNA (unknown origin) assessed as dissociation rate constant incubated for 180 secs by SPR analysis
State just the number; it will be interpreted in ×10⁻³ /s.

# example entries with known answers
given smiles	Dissociation rate constant (koff), ×10⁻³ /s
CC(=O)Nc1cc(C(=O)NCCC(=O)Nc2cn(C)c(C(=O)Nc3cc(C(=O)NCC[C@@H](N)C(=O)Nc4cc(C(=O)NCCC(=O)Nc5cn(C)c(C(=O)Nc6cn(C)c(C(=O)NCCC(=O)NCCCN(C)C)n6)n5)n(C)c4)n(C)c3)n2)n(C)c1	7.2
CC(=O)Nc1cc(C(=O)Nc2cn(C)c(C(=O)NCCC(=O)Nc3cc(C(=O)NCCCC(=O)Nc4cn(C)c(C(=O)Nc5cn(C)c(C(=O)NCCC(=O)Nc6cc(C(=O)NCCC(=O)NCCCN(C)C)n(C)c6)n5)n4)n(C)c3)n2)n(C)c1	2.4

`CC(=O)Nc1cc(C(=O)Nc2cn(C)c(C(=O)NCCC(=O)Nc3cc(C(=O)NCC[C@H](N)C(=O)Nc4cn(C)c(C(=O)Nc5cn(C)c(C(=O)NCCC(=O)Nc6cc(C(=O)NCCC(=O)NCCCN(C)C)n(C)c6)n5)n4)n(C)c3)n2)n(C)c1` yielded Dissociation rate constant (koff) of 8.6
